# target-or-test-system: PI 3-kinase delta (Homo sapiens, UniProt O00329)
# Sequence (O00329 whole entry): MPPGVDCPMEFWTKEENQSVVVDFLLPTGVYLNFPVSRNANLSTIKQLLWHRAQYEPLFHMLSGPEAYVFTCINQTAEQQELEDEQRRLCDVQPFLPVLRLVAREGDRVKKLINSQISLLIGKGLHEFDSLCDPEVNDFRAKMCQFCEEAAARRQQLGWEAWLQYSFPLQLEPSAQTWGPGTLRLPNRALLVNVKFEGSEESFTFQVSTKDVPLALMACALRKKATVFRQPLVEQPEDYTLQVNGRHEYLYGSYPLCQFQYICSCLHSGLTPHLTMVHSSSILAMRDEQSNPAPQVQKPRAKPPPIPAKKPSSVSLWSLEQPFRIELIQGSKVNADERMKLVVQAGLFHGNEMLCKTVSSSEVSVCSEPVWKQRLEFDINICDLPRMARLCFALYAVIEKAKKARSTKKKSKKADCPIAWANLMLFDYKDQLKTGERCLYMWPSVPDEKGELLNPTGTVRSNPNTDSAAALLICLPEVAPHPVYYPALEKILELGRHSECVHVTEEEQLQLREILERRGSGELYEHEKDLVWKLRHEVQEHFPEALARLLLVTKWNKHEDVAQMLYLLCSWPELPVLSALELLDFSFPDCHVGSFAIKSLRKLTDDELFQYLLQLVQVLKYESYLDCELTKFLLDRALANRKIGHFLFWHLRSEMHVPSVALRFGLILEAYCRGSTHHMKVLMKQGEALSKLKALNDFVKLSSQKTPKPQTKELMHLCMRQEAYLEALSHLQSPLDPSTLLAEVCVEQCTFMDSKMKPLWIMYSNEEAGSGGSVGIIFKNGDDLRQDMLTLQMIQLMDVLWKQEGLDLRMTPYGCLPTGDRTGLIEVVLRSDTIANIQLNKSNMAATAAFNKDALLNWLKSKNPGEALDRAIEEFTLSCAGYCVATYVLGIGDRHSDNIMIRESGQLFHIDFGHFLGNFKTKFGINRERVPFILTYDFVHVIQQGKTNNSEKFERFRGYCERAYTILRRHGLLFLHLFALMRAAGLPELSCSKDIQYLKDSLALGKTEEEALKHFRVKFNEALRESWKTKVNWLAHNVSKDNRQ
# Sequence (P27986 461-568 partner): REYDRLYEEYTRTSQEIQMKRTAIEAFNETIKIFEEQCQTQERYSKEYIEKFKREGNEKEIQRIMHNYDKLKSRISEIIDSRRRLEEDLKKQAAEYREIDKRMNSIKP
# measurement-description: TR-FRET Adapta assay, assay F
# settings: read-out: Assay F PI3Kδ IC50
measure: IC50 (nM)

Example entries and their recorded answers appear below.
[[record]]
molecule = "Cc1ccc(-c2nc(-c3cc(S(=O)(=O)NCCC(C)(C)O)ccc3C)cnc2N)s1"
readout_unit = "nM"
assay_value = 40

[[record]]
molecule = "Cc1ccc(S(=O)(=O)NOCCN(C)C)cc1-c1cnc(N)c(-n2cncn2)n1"
readout_unit = "nM"
assay_value = 1200

[[record]]
molecule = "Cc1ccc(S(=O)(=O)NCCC(O)C(F)(F)F)cc1-c1cnc(N)c(-c2cnn(C)c2)n1 (centres unmarked)"
readout_unit = "nM"
assay_value = 490

[[record]]
molecule = "COCCCNS(=O)(=O)c1ccc(C)c(-c2cnc(N)c(-n3cncn3)n2)c1"
readout_unit = "nM"
assay_value = 5500


A = Cc1ncc(-c2nc(-c3cc(S(=O)(=O)NCC4(O)CCOCC4)ccc3C)cnc2N)s1
B = Cc1ccc(S(=O)(=O)N[C@@H]2CCOC2)cc1-c1cnc(N)c(-n2cncn2)n1
C = Cc1ccc(S(=O)(=O)NC[C@H]2CCOC2)cc1-c1cnc(N)c(-c2cn(C)nc2C)n1
D = Cc1ccc(S(=O)(=O)NCC(F)(F)F)cc1-c1cnc(N)c(-n2cncn2)n1
Sort by IC50, descending. # format: label list in the order the request specifies
B, D, C, A

a = Cc1ccc(S(=O)(=O)NCC(=O)C(C)(C)C)cc1-c1cnc(N)c(-n2cncn2)n1
b = Cc1cc(-c2nc(-c3cc(S(=O)(=O)N4CC[C@@H](N)C4)ccc3C)cnc2N)ccn1
Of a and b , whose reported IC50 is numerically smaller? Label of pick, please.
a

A = CCc1nnc(-c2nc(-c3cc(S(=O)(=O)N[C@H]4CC[C@H](O)CC4)ccc3C)cnc2N)o1
B = Cc1ccc(S(=O)(=O)NOC(C)C)cc1-c1cnc(N)c(-n2cncn2)n1
C = Cc1ccc(S(=O)(=O)NCCC(C)(C)O)cc1-c1cnc(N)c(-c2cnc(C3CC3)s2)n1
D = Cc1ncc(-c2nc(-c3cc(S(=O)(=O)N[C@H]4CC[C@H](O)CC4)ccc3C)cnc2N)s1
Provide the items ranked by increasing IC50. Use the labels to give the requested order.
D, C, B, A
(D: 40 nM, C: 60 nM, B: 260 nM, A: 860 nM)

====

# target-or-test-system: PI 3-kinase beta (Homo sapiens)
# Sequence (P42338 whole entry): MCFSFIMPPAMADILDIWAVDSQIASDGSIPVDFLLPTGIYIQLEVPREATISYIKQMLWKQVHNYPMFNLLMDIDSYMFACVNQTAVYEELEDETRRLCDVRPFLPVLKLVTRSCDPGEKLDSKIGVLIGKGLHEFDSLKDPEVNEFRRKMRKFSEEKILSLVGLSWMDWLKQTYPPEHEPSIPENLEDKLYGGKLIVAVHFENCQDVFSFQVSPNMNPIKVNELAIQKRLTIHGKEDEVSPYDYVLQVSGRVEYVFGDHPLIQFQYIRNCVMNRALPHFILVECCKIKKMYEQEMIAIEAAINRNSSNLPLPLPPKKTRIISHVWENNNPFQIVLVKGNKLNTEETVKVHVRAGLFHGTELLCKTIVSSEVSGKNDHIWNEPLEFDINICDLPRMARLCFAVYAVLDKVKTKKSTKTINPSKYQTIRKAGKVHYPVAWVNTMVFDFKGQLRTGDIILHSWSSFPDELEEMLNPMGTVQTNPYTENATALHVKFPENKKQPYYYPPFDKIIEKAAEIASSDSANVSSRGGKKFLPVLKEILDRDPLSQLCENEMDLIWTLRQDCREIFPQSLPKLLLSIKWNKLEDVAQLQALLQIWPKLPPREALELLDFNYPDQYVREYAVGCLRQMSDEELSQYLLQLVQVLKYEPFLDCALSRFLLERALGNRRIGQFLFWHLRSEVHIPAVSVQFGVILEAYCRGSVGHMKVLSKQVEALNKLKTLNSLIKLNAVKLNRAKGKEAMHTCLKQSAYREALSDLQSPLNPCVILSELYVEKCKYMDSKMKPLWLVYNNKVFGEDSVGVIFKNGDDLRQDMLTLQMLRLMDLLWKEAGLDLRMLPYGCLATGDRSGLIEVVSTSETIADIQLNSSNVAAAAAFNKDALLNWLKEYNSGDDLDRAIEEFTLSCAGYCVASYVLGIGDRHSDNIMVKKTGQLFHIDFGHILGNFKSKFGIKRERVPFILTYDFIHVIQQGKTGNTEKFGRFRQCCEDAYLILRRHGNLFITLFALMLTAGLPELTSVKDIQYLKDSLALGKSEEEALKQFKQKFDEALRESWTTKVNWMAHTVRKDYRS
# Sequence (Q63787 whole entry partner): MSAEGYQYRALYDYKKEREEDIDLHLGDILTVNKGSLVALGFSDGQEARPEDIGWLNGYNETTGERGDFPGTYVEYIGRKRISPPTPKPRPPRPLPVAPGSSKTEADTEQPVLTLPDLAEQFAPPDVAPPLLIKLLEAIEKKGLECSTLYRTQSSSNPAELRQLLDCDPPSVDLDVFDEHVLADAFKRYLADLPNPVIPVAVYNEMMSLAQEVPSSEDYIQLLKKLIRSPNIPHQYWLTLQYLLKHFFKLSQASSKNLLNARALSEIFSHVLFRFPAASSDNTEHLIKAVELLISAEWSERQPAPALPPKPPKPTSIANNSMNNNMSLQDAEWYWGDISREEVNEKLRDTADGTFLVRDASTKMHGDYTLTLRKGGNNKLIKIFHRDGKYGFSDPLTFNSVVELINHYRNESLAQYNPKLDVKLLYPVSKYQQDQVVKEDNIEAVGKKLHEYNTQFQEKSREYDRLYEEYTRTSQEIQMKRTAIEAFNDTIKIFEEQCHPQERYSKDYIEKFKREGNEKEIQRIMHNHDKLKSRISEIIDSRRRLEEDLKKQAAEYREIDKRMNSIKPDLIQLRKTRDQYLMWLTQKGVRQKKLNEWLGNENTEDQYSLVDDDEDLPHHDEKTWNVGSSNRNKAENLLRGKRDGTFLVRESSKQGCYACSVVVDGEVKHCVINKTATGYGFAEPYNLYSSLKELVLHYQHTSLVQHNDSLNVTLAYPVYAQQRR
# measurement-description: Cellular assay I1, p-Akt (S473) in Rat-1 cells, Surefire format
# Format: cell-based
# settings: non-asterisked data: version I1 (Surefire format), Rat-1 cells; read-out: Assay I PI3Kβ IC50
measure: IC50 (µM)

[[record]]
compound = "Cc1cc(-c2nc(-c3cc(S(=O)(=O)N[C@H]4CC[C@H](O)CC4)ccc3C)cnc2N)on1"
assay_value = 4.46


P = Cc1cc(-c2nc(-c3cc(S(=O)(=O)NCC4CCCO4)ccc3C)cnc2N)ccn1 (stereo not shown)
Q = Cc1ncc(-c2nc(-c3cc(S(=O)(=O)N[C@H]4CC[C@H](O)CC4)ccc3C)cnc2N)s1
R = Cc1ccc(S(=O)(=O)NC[C@H]2C[C@@H](O)C2)cc1-c1cnc(N)c(-n2cncn2)n1
Rank descending by IC50. Please, when replying, give the labels in the order that was requested.
R, P, Q
(R: 6.03 µM, P: 3.72 µM, Q: 1.79 µM)
